Source: patent US9353090B2

Reported Metabolic stability (Qh %), % hepatic blood flow values follow for various compounds
assay: Human liver microsome (HLM) metabolic stability assay; format: in vitro ADME; conditions: human liver microsomes
Measured endpoint: Metabolic stability (Qh %), % hepatic blood flow

Compound	Observed value
Cc1cc(COc2c(C)cccc2-c2csc(N3C[C@@H]4C[C@]4(C(=O)O)C3)n2)cc2c1CN(C1CCOCC1)CC2	<24%
CO[C@@H]1CN(c2cccc(-c3cccc(Cl)c3OCc3cc(C)c4c(c3)CCN(C3CCOCC3)C4)n2)CC[C@@H]1C(=O)O	25%
Cc1c(COc2ccccc2-c2cccc(N3CC[C@@]4(C(=O)O)C[C@H]4C3)n2)ccc2c1CCN([C@H]1CCCOC1)C2	53%
COC[C@H]1N(c2cccc(-c3cccc(C)c3OCc3cc(C)c4c(c3)CCN(C3COC3)C4)n2)C[C@@H]2C[C@@]21C(=O)O	<24%
Cc1ccc(OCc2cc(C)c3c(c2C)CCN(C2CCOC2)C3)c(-c2csc(N3CC[C@@]4(C(=O)O)C[C@H]4C3)n2)c1 (stereo partly drawn)	<24%
CO[C@@H]1CN(c2cccc(-c3cccc(C)c3OCc3ccc4c(c3C)CCN(C3CCOCC3)CC4)n2)CC[C@H]1C(=O)O	<24%

###

assay: Human liver microsome (HLM) metabolic stability assay; format: in vitro ADME; conditions: human liver microsomes
Measured endpoint: Metabolic stability (Qh %), % hepatic blood flow

Compound	Unit of measure	Value modifier	Observed value
CO[C@H]1CN(c2nc(-c3cccc(C)c3OCc3ccc4c(c3)C(C)(C)CN(C3CCOCC3)CC4)cs2)CC[C@H]1C(=O)O	%	=	45
CO[C@@H]1CN(c2cccc(-c3cccc(C)c3OCc3ccc4c(c3)C(C)(C)CN(C3CCOCC3)CC4)n2)CC[C@@H]1C(=O)O	%	<	24
CO[C@@H]1CN(c2cccc(-c3cccc(C)c3OCc3cc(C)c4c(c3)CN(C3CCOCC3)C4)n2)CC[C@@H]1C(=O)O	%	<	24
COC[C@H]1N(c2cccc(-c3cccc(C)c3OCc3ccc4c(c3)[C@H](C)CN(C3CCOCC3)CC4)n2)C[C@@H]2C[C@@]21C(=O)O	%	<	24
Cc1cccc(-c2cccc(N3C[C@@H]4C[C@]4(C(=O)O)C3)n2)c1OCc1ccc2c(c1)CCN(C1CCOCC1)CC2	%	<	24
CO[C@@H]1CN(c2cccc(-c3cccc(C)c3OCc3ccc4c(c3C)CCN(C3CCOCC3)C4)n2)CC[C@@H]1C(=O)O	%	<	24
Cc1cc(COc2c(C)cccc2-c2cccc(N3C[C@@H]4C[C@]4(C(=O)O)C3)n2)cc2c1CN(C1COC1)CC2	%	<	24
Cc1ccc(OCc2ccc3c(c2C)CCN(CC2COCCO2)CC3)c(-c2csc(N3CC[C@@]4(C(=O)O)C[C@H]4C3)n2)c1 (stereo partly shown)	%	=	46
CO[C@H]1CN(c2nc(-c3cccc(Cl)c3OCc3ccc4c(c3)[C@@H](C)CN(C3COC3)CC4)cs2)CC[C@H]1C(=O)O	%	=	47
CO[C@@H]1CN(c2cccc(-c3cccc(C)c3OCc3cc(C)c4c(c3)CCN(C3CCOCC3)C4)n2)CC[C@H]1C(=O)O	%	=	31
COC[C@H]1N(c2cccc(-c3cccc(C)c3OCc3cc4c(c(OC)c3)CN(C3COC3)CC4)n2)C[C@@H]2C[C@@]21C(=O)O	%	<	24
COCc1cc(COc2c(C)cccc2-c2cccc(N3C[C@@H]4C[C@]4(C(=O)O)[C@H]3COC)n2)cc2c1CN(C1CCOC1)CC2 (stereo partly shown)	%	=	30
Cc1cc(C)c(OCc2ccc3c(c2C)CCN(C2CCOCC2)C3)c(-c2csc(N3C[C@@H]4C[C@]4(C(=O)O)C3)n2)c1	%	<	24
CCO[C@@H]1CN(c2nccc(-c3cccc(C)c3OCc3ccc4c(c3C)CCN(C3CCOCC3)CC4)n2)CC[C@@H]1C(=O)O	%	<	24
CO[C@H]1CN(c2cccc(-c3cccc(C)c3OCc3ccc4c(c3C)CCN(C3CCOCC3)C4)n2)CC[C@H]1C(=O)O	%	=	31
Cc1ccc(OCc2ccc3c(c2C)CCN(C2CCOCC2)C3)c(-c2cccc(N3C[C@@H]4C[C@]4(C(=O)O)C3)n2)c1	%	<	24
O=C(O)[C@@]12CCN(c3nc(-c4ccccc4OCc4ccc5c(c4)CCN(C4CCOCC4)C5)cs3)C[C@@H]1C2	%	<	24
Cc1cc(CN2CCc3c(ccc(COc4ccccc4-c4cccc(N5CC[C@@]6(C(=O)O)C[C@H]6C5)n4)c3C)C2)no1	%	=	63
CCc1cc(COc2c(C)cccc2-c2cccc(N3C[C@@H]4C[C@]4(C(=O)O)[C@H]3COC)n2)cc2c1CN(C1CCOCC1)CC2	%	<	24
COC[C@H]1N(c2cccc(-c3cccc(C)c3OCc3ccc4c(c3C)CCN(C3COC3)CC4)n2)C[C@@H]2C[C@@]21C(=O)O	%	<	24
COC[C@H]1N(c2nc(-c3cccc(C)c3OCc3ccc4c(c3C)CCN(C3CCOCC3)C4)cs2)C[C@@H]2C[C@@]21C(=O)O	%	=	30
CO[C@H]1CN(c2nc(-c3cc(C)ccc3OCc3cc(C)c4c(c3F)CCN(C3CCOCC3)C4)cs2)CC[C@H]1C(=O)O	%	<	24
COCc1cc(COc2c(C)cccc2-c2cccc(N3C[C@@H]4C[C@]4(C(=O)O)[C@H]3COC)n2)cc2c1CN(C1CCOCC1)CC2	%	<	24
Cc1c(COc2ccccc2-c2cccc(N3CC[C@@]4(C(=O)O)C[C@H]4C3)n2)ccc2c1CCN(C[C@H]1COCCO1)C2	%	=	37
CCOC[C@@H]1N(c2cccc(-c3cccc(C)c3OCc3cc(C)c4c(c3)CCN(C3CCOCC3)C4)n2)C[C@@H]2C[C@@]21C(=O)O	%	=	39

###

test: physchem; settings: pH 2.2, aqueous buffer, kinetic from dmso stock, Solubility (pH 2.2)
Reported solubility at 24 h values follow for various compounds
Measured endpoint: solubility at 24 h (µg/mL)

Compound	Measured endpoint	Observed value
Cc1ccc(OCc2ccc3c(c2C)CCN(C2CCOC2)CC3)c(-c2csc(N3CC[C@@]4(C(=O)O)C[C@H]4C3)n2)c1 (stereo partly shown)	solubility at 24 h	90
CO[C@@H]1CN(c2nc(-c3cc(F)cc(C)c3OCc3ccc4c(c3)[C@@H](C)CN(C3CCOCC3)CC4)cs2)CC[C@@H]1C(=O)O	solubility at 24 h	97.4
CCO[C@@H]1CN(c2cccc(-c3cc(C)ccc3OCc3cc4c(c(OC)c3)CN(C3CCOCC3)CC4)n2)CC[C@@H]1C(=O)O	solubility at 24 h	126
COc1cc(COc2c(Cl)cccc2-c2cccc(N3CC[C@@H](C(=O)O)[C@@H](OC)C3)n2)cc2c1CN(C1CCOCC1)CC2	solubility at 24 h	155
CCOC[C@H]1N(c2cccc(-c3cccc(C)c3OCc3cc(C)c4c(c3)CCN(C3CCOCC3)C4)n2)C[C@@H]2C[C@@]21C(=O)O	solubility at 24 h	137
Cc1ccc(OCc2ccc3c(c2)CCN(C2CCOCC2)C3)c(-c2csc(N3C[C@@H]4C[C@]4(C(=O)O)C3)n2)c1	solubility at 24 h	110
COC[C@H]1N(c2cccc(-c3cccc(C(F)(F)F)c3OCc3cc(C)c4c(c3)CCN(C3COC3)C4)n2)C[C@@H]2C[C@@]21C(=O)O	solubility at 24 h	142
COc1cc(COc2ccc(C)cc2-c2cccc(N3CC[C@H](C(=O)O)[C@H](OC)C3)n2)cc2c1CN(C1CCOCC1)CC2	solubility at 24 h	150
CO[C@H]1CN(c2nc(-c3cccc(C)c3OCc3ccc4c(c3C)CCN(C3COC3)CC4)cs2)CC[C@H]1C(=O)O	solubility at 24 h	120
CCO[C@@H]1CN(c2nccc(-c3cccc(C)c3OCc3cc4c(c(OC)c3)CN(C3CCOCC3)CC4)n2)CC[C@@H]1C(=O)O	solubility at 24 h	91.2
COC[C@H]1N(c2cccc(-c3cccc(C)c3OCc3cc(C)c4c(c3F)CCN(C3CCOCC3)C4)n2)C[C@@H]2C[C@@]21C(=O)O	solubility at 24 h	120
COc1ccc(OCc2ccc3c(c2C)CCN(C2CCOCC2)C3)c(-c2csc(N3CC[C@@]4(C(=O)O)C[C@H]4C3)n2)c1	solubility at 24 h	130
COC[C@H]1N(c2cccc(-c3cccc(C)c3OCc3cc(F)c4c(c3)CCN(C3CCOCC3)CC4)n2)C[C@@H]2C[C@@]21C(=O)O	solubility at 24 h	131

###

Reported Metabolic stability (Qh %), % hepatic blood flow values follow for various compounds
assay: Human liver microsome (HLM) metabolic stability assay; format: in vitro ADME; conditions: human liver microsomes
Measured endpoint: Metabolic stability (Qh %), % hepatic blood flow

Compound	Observed value
Cc1ccc(OCc2cc(C)c3c(c2)CCN(C2CCCOC2)C3)c(-c2csc(N3CC[C@@]4(C(=O)O)C[C@H]4C3)n2)c1 (mixture of isomers)	<24%
Cc1cccc(-c2csc(N3C[C@@H]4C[C@]4(C(=O)O)C3)n2)c1OCc1cc(C#N)c2c(c1)CCN(C1CCOCC1)C2	<24%
Cc1cccc(-c2csc(N3CC[C@@]4(C(=O)O)C[C@H]4C3)n2)c1OCc1ccc2c(c1C)CCN(CC1COCCO1)C2 (stereo partly shown)	41%
Cc1c(COc2ccccc2-c2cccc(N3CC[C@@]4(C(=O)O)C[C@H]4C3)n2)ccc2c1CCN(C1COC1)C2	<24%
CCO[C@@H]1CN(c2nccc(-c3cccc(C)c3OCc3cc(C)c4c(c3)CCN(C3CCOCC3)C4)n2)CC[C@@H]1C(=O)O	<24%
COC[C@H]1N(c2cccc(-c3cccc(C)c3OCc3ccc4c(c3C)CCN(C3COC3)C4)n2)C[C@@H]2C[C@@]21C(=O)O	<24%
Cc1cccc(-c2cccc(N3C[C@@H]4C[C@]4(C(=O)O)C3)n2)c1OCc1ccc2c(c1C)CCN(C1CCOCC1)C2	<24%
Cc1ccc(OCc2cc(C)c3c(c2C)CCN(CC2COCCO2)C3)c(-c2csc(N3CC[C@@]4(C(=O)O)C[C@H]4C3)n2)c1 (stereo partly shown)	<24%
CO[C@H]1CN(c2cccc(-c3cc(C)ccc3OCc3cc(C)c4c(c3)CCN(C3CCOCC3)C4)n2)CC[C@H]1C(=O)O	<24%
Cc1ccc(OCc2cc(C)c3c(c2)CCN(C2COC2)C3)c(-c2csc(N3CC[C@@]4(C(=O)O)C[C@H]4C3)n2)c1	31%
COC[C@H]1N(c2cccc(-c3cc(C)ccc3OCc3ccc4c(c3C)CCN(C3CCOCC3)C4)n2)C[C@@H]2C[C@@]21C(=O)O	<24%
CCc1cc(COc2c(C)cccc2-c2cccc(N3C[C@@H]4C[C@]4(C(=O)O)[C@H]3COC)n2)cc2c1CN(C1CCOC1)CC2 (stereo partly shown)	<24%
CO[C@H]1CN(c2cccc(-c3cccc(C)c3OCc3ccc4c(c3C)CCN(C3CCOCC3)CC4)n2)CC[C@H]1C(=O)O	47%
